# target: T1, human folate receptor alpha expressed on cells (transfected HEK293T, HeLa, MCF7, MDA-MB-231) (human, UniProt P15328 25-234)
# T1 construct: HEK293T transiently transfected with human FOLR1; also called native human FRα; cell-expressed human FOLR1
# T1 sequence (P15328 25-234 limits assumed): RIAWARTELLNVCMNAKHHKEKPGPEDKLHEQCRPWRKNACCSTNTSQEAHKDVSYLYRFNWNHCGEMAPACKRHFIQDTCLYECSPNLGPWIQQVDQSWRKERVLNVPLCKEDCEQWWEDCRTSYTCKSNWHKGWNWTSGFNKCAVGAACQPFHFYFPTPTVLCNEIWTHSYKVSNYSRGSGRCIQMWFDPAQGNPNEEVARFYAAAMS
# assayDetails: flow cytometry on HeLa cells, anti-Flag detection
recordedMetric: MFI top (MFI)

binder	recordedMetric	unitLabel	observedResult
P01500045: P01500001(G26E, I33L)-FLAG3-HIS6 (VHH, also called P0150045) VHH: EVQLVESGGGLVQPGGSLRLSCAASESGFSGMLMGWYRQAPGKQRELVATVTSHGTTNYADSVKGRFTISRDNAKNTVYLQMNSLRPEDTAVYYCNAHFPGIYWGKGTLVTVSS	MFI top	MFI	58900
P01500044: P01500001(S30I, D72E, N73G)-FLAG3-HIS6 (VHH, also called P0150044) VHH: EVQLVESGGGLVQPGGSLRLSCAASGSGFIGMIMGWYRQAPGKQRELVATVTSHGTTNYADSVKGRFTISREGAKNTVYLQMNSLRPEDTAVYYCNAHFPGIYWGKGTLVTVSS	MFI top	MFI	64100
